All values here come from PubChem BioAssay (NCI).

# Test system: HL-60(TB) leukemia
# experiment summary: NCI tumour cell line growth inhibition, 48 h
value type: TGI (µM)
Give bare numbers, in µM.

Consider the compound shown here: COc1ccc2c(c1)CCC1C2CCC2(C)C1CC[C@@]2(O)CNC(=O)/C=C/c1ccc(O)c(O)c1 (some centres undefined) What is its recorded TGI?
3.97

Another compound to check: COC(=O)c1cc2c([nH]c3ccccc32)c(-c2nc3cc(N(S(=O)(=O)c4ccc(C)cc4)S(=O)(=O)c4ccc(C)cc4)c(OC)cc3cc2CO)n1
75.7

Another compound to check: CSc1nc(Cl)c2c(n1)Sc1ncnn1C2O (centres undefined)
14.8

***
Consider the compound shown here: CN(C)c1ccc(/C=C/C(=O)c2ccc(Nc3nc(Nc4ccc(F)cc4)nc(Nc4ccc(Cl)cc4)n3)cc2)cc1 What is its recorded TGI?
5.34

====

# Test system: HS 578T breast
# experiment summary: NCI tumour cell line growth inhibition, 48 h
For each record, write down the corresponding GI50.

# return GI50 for each item in the list
1. CCCCCCn1c(=N)n(CC(O)COc2cccc(C)c2)c2ccccc21 (centres undefined)
2. O=C(/C=C/CN1CCCCC1)Nc1cc2c(Nc3ccc(F)c(Cl)c3F)ncnc2cc1OCCOC(F)F
3. CCOC(=O)C(Cc1ccc(N(CCCl)CCCl)cc1)NC(=O)C(CC(C)C)NC(C)=O (centres undefined)

1. 2630 nM
2. 873 nM
3. 2550 nM

Consider the compound shown here: Oc1c(Br)cc(Br)c2cccnc12 What is its recorded GI50?
5730 nM

====

# Test system: 786-0 renal
# experiment summary: NCI tumour cell line growth inhibition, 48 h
For each record, write down the corresponding TGI.
Answers are plain numbers, in µM.

Example molecules with recorded TGI:
Consider the molecule shown here: COC(=O)C(I(OS(=O)(=O)c1ccc(C)cc1)c1ccccc1)=P(c1ccccc1)(c1ccccc1)c1ccccc1 What is its recorded TGI?
28.9

Another molecule to check: COc1cccc2c(NNc3ccc(Cl)cc3)c3ccc([N+](=O)[O-])cc3nc12
21.2

Another molecule to check: Cc1ccc(SCN2CCCCC2)cc1 (tested in a mixture with another compound)
29.9

Another molecule to check: COc1ccc(C(=O)CC(Cl)=C(Cl)Cl)cc1
44.7

With those in mind, consider the next molecule.
Consider the molecule shown here: Cn1cc(C2=C(c3cn(CCCSC(=N)N)c4ccccc34)C(=O)NC2=O)c2ccccc21 What is its recorded TGI?
10.9

====

# System: SN12C renal
# experiment summary: NCI tumour cell line growth inhibition, 48 h
value type: TGI

Consider the compound shown here: COc1cc(OC)cc(N(C)Cc2cnc3nc(N)nc(N)c3c2C)c1 What is its recorded TGI?
> 100 µM

Another compound to check: CCCCCCCCCCCCOC1C(C(COC2OC(C(O)CO)C3OC(C)(C)OC23)OC(=O)Nc2ccc([N+](=O)[O-])cc2)OC2OC(C)(C)OC21 (centres undefined)
3.52 µM

Another compound to check: COC(=O)C(I(OS(=O)(=O)c1ccc(C)cc1)c1ccccc1)=P(c1ccccc1)(c1ccccc1)c1ccccc1
> 100 µM

Another compound to check: COc1ccc(/C=N/NC(=O)c2ccccc2Nc2ccccc2C(=O)N/N=C/c2ccc(OC)c(OC)c2)cc1OC
> 100 µM

Another compound to check: CC(C)NC(=O)OCc1c(COC(=O)NC(C)C)c(-c2ccc[n+](COC(=O)C3CCCCC3)c2)n2c1CCC2
> 100 µM

# return TGI for each item in the list
1. CSc1nc(Cl)c2c(n1)Sc1ncnn1C2O (centres undefined)
2. COc1cc(C2c3cc4c(c(O)c3C(=O)C3CCC(=O)N32)OCO4)cc(OC)c1OC (centres undefined)
3. O=C(c1ccccc1)c1cc(-c2ccccc2)c(-c2ccccc2)[nH]c(=O)c1=O
4. COC(=O)C1(C(=O)OC)CC2=C(S(=O)(=O)c3ccccc3)C[C@@H](C#N)[C@H]2C1

1. 24 µM
2. > 100 µM
3. > 100 µM
4. > 100 µM
